All figures here come from patent US7223791B2.

// reported melting point per item
PROPERTY_LABEL: melting point

> print(dat)
                                   compound     meas.value
1  O=C(O)c1ccccc1-c1ccc(-c2ccc(C(F)(F)F)cc2)o1  182 to 183 °C
2  COC(=O)c1cccc(-c2cc(-c3ccc(Cl)cc3)on2)c1  157 to 158 °C
3  COC(=O)c1ccc(-c2nc(-c3ccc(C(F)(F)F)cc3)no2)cc1  177 to 178 °C
4   COC(=O)c1ccc(-c2n[nH]c(-c3ccccc3)n2)cc1  243 to 244 °C
5  O=C(O)c1ccc(-c2ccc(-c3ccc(C(F)(F)F)cc3)o2)cc1  270 to 271 °C
6  COC(=O)c1ccc(-c2cc(-c3ccccc3)on2)cc1 [Example 21, methyl 4-(5-phenyl-3-isoxazolyl)benzoate]  201 to 202 °C
7  Nc1cc(C(=O)O)ccc1-c1nnc(-c2ccc(C(F)(F)F)cc2)o1       > 300 °C
8       O=C(O)c1ccc(-c2cc(-c3ccccc3)on2)cc1  297 to 298 °C

* * *

// reported melting point per item
PROPERTY_LABEL: melting point

> print(dat)
                            structure.smiles     meas.value
 1   COC(=O)c1ccc(-c2nc(-c3ccccc3)n(C)n2)cc1  167 to 168 °C
 2  COC(=O)c1ccc(-c2nc(-c3ccc(Cl)cc3)no2)c([N+](=O)[O-])c1  189 to 190 °C
 3  COC(=O)c1ccc(-c2cc(-c3ccc(C(F)(F)F)cc3)on2)cc1  183 to 184 °C
 4  CCOC(=O)c1ccc(-c2ccc(-c3ccc(C(F)(F)F)cc3)s2)cc1  203 to 204 °C
 5  O=C(O)c1cc(-c2ccc(-c3ccc(C(F)(F)F)cc3)o2)ccc1O  272 to 273 °C
 6   O=C(O)c1ccc(-c2ccc(-c3ccc(Cl)cc3)s2)cc1  285 to 286 °C
 7  O=C(O)c1ccc(-c2nc(-c3ccc(C(F)(F)F)cc3)no2)c([N+](=O)[O-])c1  233 to 234 °C
 8  COC(=O)c1ccc(-c2nc(-c3ccc(C(C)(C)C)cc3)no2)c(N)c1  195 to 196 °C
 9       O=C(O)c1cccc(-c2cc(-c3ccccc3)on2)c1  250 to 251 °C
10  CCOC(=O)c1ccc(-c2nnc(-c3ccccc3[N+](=O)[O-])o2)cc1  127 to 128 °C
